The reported measurements were obtained from patent US8895503B2.

Examples of substances with documented PA (pharmaceutical availability, based on changes in blood glucose level) follow.
Test: Nasal administration of insulin with peptides of SEQ ID NOs:1 to 6 (Example 5)
Conditions: rats, nasal, insulin 1 IU/kg with 0.5 mM L-amino acid peptide or no peptide
Where no end group is shown, it is not given here.
Measurement name: PA (pharmaceutical availability, based on changes in blood glucose level) (%)

1) KKWKMRRNQFWIKIQR-OH [SEQ ID NO: 2] | 14.7
2) KQIRIWFQNKKMRWRR-OH [SEQ ID NO: 5] | 23.4
3) KQIKIWFQNKKMKWKK-OH [SEQ ID NO: 4] | 11.2
4) RQIRIWFQNRRMRWRR-OH [SEQ ID NO: 3] | 18.6
